Biological target: T1, 4H348-bN
T1 chain: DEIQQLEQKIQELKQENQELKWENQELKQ
Assay: two-hybrid library CCNG1;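 further: natural log of median RNA to DNA barcode read ratio; higher means stronger binding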
Measured Quantity: interaction score

[[record]]
binder = "DKIQQLKQENQELEQEIQELEWENQELKQ [4H2692-bN]"
recorded_measurement = 0.502

[[record]]
binder = "DEIQQLEQKIQELEQKNQELKWKNQELEQ [4H319-bN]"
recorded_measurement = -1.38

[[record]]
binder = "DKIQQLEQKNQELKQEIQELEWKNQELEQ [4H2503-bN]"
recorded_measurement = 0.419


[A] DKIQQLEQEIQELKQENQELKWKNQELEQ [4H2143-bN]
[B] DKIQQLKQENQELEQENQELKWKIQELEQ [4H2717-bN]
-- ask Which numeric interaction score is bigger, that of A or that of B ? Give the label of your selection.
-- reply A
(A: 0.129, B: -0.289)

Entry source: paper PMC10397247
